The values you see were collected from patent US20250270339A1.

This listing pairs binders with measured fold over parental (CHO WT).
Target: T1, Full length Mouse TfR on CHO cells (mouse, UniProt Q62351 1-763)
T1 construct: also called CHO + muTfR
T1 sequence (Q62351 whole entry): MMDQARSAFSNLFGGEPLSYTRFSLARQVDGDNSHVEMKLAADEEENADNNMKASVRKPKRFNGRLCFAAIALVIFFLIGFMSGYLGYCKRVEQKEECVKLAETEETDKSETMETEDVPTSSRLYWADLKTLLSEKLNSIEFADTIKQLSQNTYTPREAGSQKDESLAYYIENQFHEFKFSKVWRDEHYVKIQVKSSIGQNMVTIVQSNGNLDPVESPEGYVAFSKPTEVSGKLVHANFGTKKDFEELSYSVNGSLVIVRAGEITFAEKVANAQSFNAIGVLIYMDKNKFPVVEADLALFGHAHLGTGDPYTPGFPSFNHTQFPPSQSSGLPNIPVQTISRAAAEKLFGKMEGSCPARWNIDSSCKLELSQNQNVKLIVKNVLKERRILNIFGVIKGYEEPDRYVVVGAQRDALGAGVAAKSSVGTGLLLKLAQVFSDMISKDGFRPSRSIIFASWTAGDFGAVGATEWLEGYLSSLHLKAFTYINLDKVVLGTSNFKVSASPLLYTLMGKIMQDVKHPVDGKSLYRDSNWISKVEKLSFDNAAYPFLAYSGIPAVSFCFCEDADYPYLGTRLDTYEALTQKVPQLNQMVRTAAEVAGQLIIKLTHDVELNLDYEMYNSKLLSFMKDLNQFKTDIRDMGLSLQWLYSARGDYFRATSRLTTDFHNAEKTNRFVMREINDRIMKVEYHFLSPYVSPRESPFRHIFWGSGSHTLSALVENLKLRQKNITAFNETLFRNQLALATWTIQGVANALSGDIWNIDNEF
Assay: FACS MFI, supernatant

* TfR4 (mouse hybridoma antibody) (antibody, V domains shown, mouse IgG in hybridoma supernatant) VH: QVQLQQSGAELVRPGTSVKVSCKASGYAFTNYLIEWVKQRPGQGLEWIGVINPGSGGTTYNEKFKGKATLTADKSSSTAYMQLSGLTSDDSAVYFCARRSPYFDYWGQGTTLTVSS VL: SIVMTQTPKFLLVSAGDRVTITCKASQSVSNDVAWYQQKPGQSPKLLIYYASNRYTGVPDRFTGSGYGTDFTFTISTVQAEDLAVYFCHQDYISPTFGGGTKLEIK | 1 fold

Q: Param item = TfR23 (mouse hybridoma antibody) (antibody, V domains shown, mouse IgG in hybridoma supernatant) VH: DVQLQESGPGLVKPSQSLSLTCTVTGYSITSDYAWNWIRQFPGNKLEWMGYISYSGSTSYNPSLKSRISITRDTSKNQFFLQLNSVTTEDTATYYCTSWGYRYLEDYWGQGTSVTVSS VL: QIVLTQSPAIMSASPGERVTMTCSASSSISSLHWYQQKPGTSPKKWIYDTSKLASGVPARFSGSGSGTSYSLAISSMEAEDAATYYCHQRSSYPWTFGGGTKLEIK ; retrieve measured fold over parental (CHO WT).
Ans: 1 fold

Q: Param item = TfR8 (mouse hybridoma antibody) (antibody, V domains shown, mouse IgG in hybridoma supernatant) VH: QVQLQQSGAELVRPGTSVKVSCKASGYAFTNYLIEWVKQRPGQGLEWIGVINPGSGGTNYNEKFKGKATLTADKSSSTAYMQLSSLTSDDSAVYFCARRSPYFDYWGQGTTLTVSS VL: SIVMTQTPKFLLVSAGDRVTITCKASQSVSNDVAWYQQKPGQSPKLLIYYASNRYTGVPDRFTGSGYGTDFTFTISTVQAEDLAVYFCHQDYISPTFGGGTKLEIK ; retrieve measured fold over parental (CHO WT).
Ans: 1 fold
